As shown below, each of these binders has a reported CRF1R Emax % value.
Biological target: corticotropin releasing factor 1 receptor
Assay: cell-based or functional assay
Ends that are not written are not given here.
I only need the number, in %, no unit after it.

Worked cases, answers included:
> print(dat)
                                     binder  readingunit  experimentalvalue
1  IVLSLDVPIHLLQILLEQARARAAREQATTNARILARV-NH2 [SEQ ID NO 371]            %                 22
2  ZGPPISIDLPLHLLRKMIEIEKQEKEKQQAANNALLLDTI (C-terminal amide) [SEQ ID NO 240]            %                 80

Read the next record carefully.
// CRF1R Emax % lookup, key: ZGPPISIDLPFQLLRILIEIEKQEKEKQQAANNALLLAT (C-terminal amide) [SEQ ID NO 358]
100
